Measured BUN, listed per entry for reference.
Organism: Rattus norvegicus
Test: Open TG-GATES - Regimen: Daily Repeat
Type: toxicity, organism-based, Sprague-Dawley
Set-up: regimen Daily Repeat, gender Male, age 6 weeks
Details: in vivo, po, 100 mg/kg, […], tissue Plasma, route gavage, dose level Low, time 7 day
Write it as a number; the unit mg/dL goes unstated.

compound	unitsSymbol	BUN
COc1ccc2[nH]c([S+]([O-])Cc3ncc(C)c(OC)c3C)nc2c1 (stereo not given) [OMEPRAZOLE]	mg/dL	15.6
CCOc1ccc(NC(=O)CC(C)O)cc1 (stereo not given) [BUCETIN]	mg/dL	15.8
CCOC(=O)CCC(=O)O[C@H]1[C@H](O[C@@H]2[C@@H](C)[C@H](O[C@H]3C[C@@](C)(OC)[C@@H](O)[C@H](C)O3)[C@@H](C)C(=O)O[C@H](CC)[C@@](C)(O)[C@H](O)[C@@H](C)C(=O)[C@H](C)C[C@@]2(C)O)O[C@H](C)C[C@@H]1N(C)C [ERYTHROMYCIN ETHYLSUCCINATE]	mg/dL	18.4

For the compound COC1=CC(=O)C[C@@H](C)[C@]12Oc1c(Cl)c(OC)cc(OC)c1C2=O [GRISEOFULVIN] , what BUN is on record?
15.4

For the compound NC(N)=Nc1nc(CSCCC(N)=NS(N)(=O)=O)cs1 [FAMOTIDINE] , what BUN is on record?
16.4

---

Species: Rattus norvegicus
Experiment: Open TG-GATES - Regimen: Single
Format: toxicity, organism-based, Sprague-Dawley
Design: regimen Single, gender Male, age 6 weeks
Conditions: in vivo, po, 100 mg/kg, 3 h, tissue Plasma, route gavage, dose level High
Measured BUN, listed per entry for reference.
Write it as a number; the unit mg/dL goes unstated.

Some compounds with known BUN results, for comparison:
In [3]: df
Out[3]:
                                   compound  unitssymbol  resultvalue
0                CN(C)CCN(Cc1cccs1)c1ccccn1        mg/dL         10.8
1  CN(C)CCCN1c2ccccc2CCc2ccc(Cl)cc21 [CLOMIPRAMINE]        mg/dL          7.4
2  CC1=C(/C=C/C(C)=C/C=C/C(C)=C/CO)C(C)(C)CCC1 [RETINOL]        mg/dL         13.6

For the compound CN(C)CCCN1c2ccccc2CCc2ccccc21 [IMIPRAMINE] , what BUN is on record?
6.8

---

Species: Rattus norvegicus
Assay: Open TG-GATES - Regimen: Daily Repeat
Type: toxicity, organism-based, Sprague-Dawley
Set-up: regimen Daily Repeat, gender Male, age 6 weeks
Settings: in vivo, po, 300 mg/kg, […], tissue Plasma, route gavage, dose level Middle, time 7 day
quantity: TBIL
Answer format: number, then unit.

molecule	TBIL
NC(N)=Nc1nc(CSCCC(N)=NS(N)(=O)=O)cs1	0.1 mg/dL
COc1ccc2[nH]c([S+]([O-])Cc3ncc(C)c(OC)c3C)nc2c1 (stereo not given)	0.1 mg/dL
CCOC(=O)CCC(=O)O[C@H]1[C@H](O[C@@H]2[C@@H](C)[C@H](O[C@H]3C[C@@](C)(OC)[C@@H](O)[C@H](C)O3)[C@@H](C)C(=O)O[C@H](CC)[C@@](C)(O)[C@H](O)[C@@H](C)C(=O)[C@H](C)C[C@@]2(C)O)O[C@H](C)C[C@@H]1N(C)C [ERYTHROMYCIN ETHYLSUCCINATE]	0.002 mg/dL
COC1=CC(=O)C[C@@H](C)[C@]12Oc1c(Cl)c(OC)cc(OC)c1C2=O	0.1 mg/dL

Proceeding to the next molecule to report its TBIL.
For the molecule CCOc1ccc(NC(=O)CC(C)O)cc1 (stereo not given) , what TBIL is on record?
0.04 mg/dL
